# credit: patent US20230279105A1

- test system: T1, Human TIM-3 Human Fc tagged protein (human, fluorescently labeled with HiLyte Fluor 555 (sites not given))
- T1 construct: Bought construct; also called TIM-3 protein tagged with human Fc; ACROBiosystems catalog no: TM3-H5258
- measurement description: capture slide probed with labeled TIM-3-Fc;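 further: IgG from single CD138-enriched plasma cells, isolated from lymphocytes, immobilized on a derivatized glass slide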

[
  {
    "binder": "SCT-Fa059 (antibody, V domains shown, murine IgG) VH: EVQLQQSGPVLVKPGASVKMSCQASGYSFTGYHMNWVKQSHGKSLEWIGIINPYNSGITYNQKFKGRATLTVDKSSDTAYMDLNSLTSEDSVVYYCVRGAYGNPLDYWGQGTTLTVSS VL: DIRMTQSPSSIYASLGERVTITCKASQDINSYLSWFQQKPGKSPETLIYRTNRLVDGVPSRFSGSGSGQDYSLTISSLEYEDMGIYYCLQYDEYPYTFGGGTKLEIK",
    "binding result": "binds"
  },
  {
    "binder": "SCT-Fa097 (antibody, V domains shown, murine IgG) VH: QVQLKQSGAELVRPGTSVKLSCKASGYILTDYYINWVKQRPGQGLEWIARIYPGNGNTYYNEKFKGKATLTAEKSSSTVNMQVSSLTSEDSAVYFCARGGSSDRIYYYAMDHWGQGTSVTVSS VL: DIQMNQSPSSLSASLGDTINITCHASQNINVWLSWYQQKPGNIPKLLIYKASNLHTGVPLRFSGSGSGTGFTLTISSLQPEDIATYYCQQGQSYPLTFGSGTKLEIK",
    "binding result": "binds"
  },
  {
    "binder": "SCT-Fa082 (antibody, V domains shown, murine IgG) VH: QGQLQQPGAEVVKPGAAVKLSCKASGYTFTSYWMQWIKQRPGQGLEWIGEIDPSDNYTDYNQNFKGKATLTVDTSSSTAYLQLSSLTSEDSAVYYCAREGAFSSPFAYWGPGTLVTVSS VL: DILMTQSPSSMSVSLGDTVSIICHASQDIRSNIGWLQQKPGKSFKGLIYHGTNLEDGVPSRFSGSGSGADYSLTISSLESEDFADYYCVQYVQFPRTFGGGTKLEIK",
    "binding result": "binds"
  }
]
